Hello, the source for this data is PubChem BioAssay AID2060512, in case you need it.

Tested on: 186277-243-T-J2-PDC complex spheroid viability
assay text: Anticancer human tumor 186277-243-T-J2-PDC patient-derived colon adenocarcinoma cell line growth inhibition [GQUAD]
test conditions: second compound 0.1 µM; first compound 0.00999 µM; active compounds read low
Item-by-item account of viability, T/C

- molecule: "CC[C@@]1(O)C(=O)OCc2c1cc1n(c2=O)Cc2cc3c(CN(C)C)c(O)ccc3nc2-1 + CN(C)c1ccc(Nc2c3ccc(NC(=O)CCN4CCCC4)cc3nc3cc(NC(=O)CCN4CCCC4)ccc23)cc1"
  target system: "186277-243-T-J2-PDC complex spheroid viability"
  viability, T/C / %: 92.5
- molecule: "Cc1[nH]c2ccccc2c1CCNCc1ccc(/C=C/C(=O)NO)cc1 + Cc1cnc(CNC(=O)c2c(=O)c3ccc(N4CCCN(C)CC4)nc3n3c2sc2ccccc23)cn1"
  target system: "186277-243-T-J2-PDC complex spheroid viability"
  viability, T/C / %: 61.4
- molecule: "CC[C@@]1(O)C(=O)OCc2c1cc1n(c2=O)Cc2cc3c(CN(C)C)c(O)ccc3nc2-1 + Cc1cnc(CNC(=O)c2c(=O)c3ccc(N4CCCN(C)CC4)nc3n3c2sc2ccccc23)cn1"
  target system: "186277-243-T-J2-PDC complex spheroid viability"
  viability, T/C / %: 87.5
- molecule: "CC[C@@]1(O)C(=O)OCc2c1cc1n(c2=O)Cc2cc3c(CN(C)C)c(O)ccc3nc2-1 + Cc1[nH]c2ccc(F)cc2c1-c1nc2c3cccnc3c3ncccc3c2[nH]1"
  target system: "186277-243-T-J2-PDC complex spheroid viability"
  viability, T/C / %: 94.2
- molecule: "Cn1ncnc1[C@H]1c2n[nH]c(=O)c3cc(F)cc(c23)N[C@@H]1c1ccc(F)cc1 + Cc1cnc(CNC(=O)c2c(=O)c3ccc(N4CCCN(C)CC4)nc3n3c2sc2ccccc23)cn1"
  target system: "186277-243-T-J2-PDC complex spheroid viability"
  viability, T/C / %: 84.3

----------
Tested on: 186277-243-T-J2-PDC complex spheroid viability
assay text: Anticancer human tumor 186277-243-T-J2-PDC cell line growth inhibition [GQUAD];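 also: spheroids exposed to drugs for 7 days; 100% = DMSO vehicle control viability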
test conditions: second compound 0.0316 µM; first compound 0.00999 µM; active compounds read low
Item-by-item account of viability, T/C

- compound: "Cc1[nH]c2ccccc2c1CCNCc1ccc(/C=C/C(=O)NO)cc1 + Cc1[nH]c2ccc(F)cc2c1-c1nc2c3cccnc3c3ncccc3c2[nH]1"
  viability, T/C / %: 104
- compound: "Cc1[nH]c2ccccc2c1CCNCc1ccc(/C=C/C(=O)NO)cc1 + CN(C)c1ccc(Nc2c3ccc(NC(=O)CCN4CCCC4)cc3nc3cc(NC(=O)CCN4CCCC4)ccc23)cc1"
  viability, T/C / %: 96.7
- compound: "Cc1[nH]c2ccccc2c1CCNCc1ccc(/C=C/C(=O)NO)cc1 + Cc1cnc(CNC(=O)c2c(=O)c3ccc(N4CCCN(C)CC4)nc3n3c2sc2ccccc23)cn1"
  viability, T/C / %: 110
- compound: "CCc1c2c(nc3ccc(O)cc13)-c1cc3c(c(=O)n1C2)COC(=O)[C@]3(O)CC + CN(C)c1ccc(Nc2c3ccc(NC(=O)CCN4CCCC4)cc3nc3cc(NC(=O)CCN4CCCC4)ccc23)cc1"
  viability, T/C / %: 40.6
- compound: "CC[C@@]1(O)C(=O)OCc2c1cc1n(c2=O)Cc2cc3c(CN(C)C)c(O)ccc3nc2-1 + Cc1[nH]c2ccc(F)cc2c1-c1nc2c3cccnc3c3ncccc3c2[nH]1"
  viability, T/C / %: 88.2
- compound: "CC[C@@]1(O)C(=O)OCc2c1cc1n(c2=O)Cc2cc3c(CN(C)C)c(O)ccc3nc2-1 + Cc1cnc(CNC(=O)c2c(=O)c3ccc(N4CCCN(C)CC4)nc3n3c2sc2ccccc23)cn1"
  viability, T/C / %: 82.4
- compound: "CC[C@@]1(O)C(=O)OCc2c1cc1n(c2=O)Cc2cc3c(CN(C)C)c(O)ccc3nc2-1 + CN(C)c1ccc(Nc2c3ccc(NC(=O)CCN4CCCC4)cc3nc3cc(NC(=O)CCN4CCCC4)ccc23)cc1"
  viability, T/C / %: 99.2
- compound: "Cn1ncnc1[C@H]1c2n[nH]c(=O)c3cc(F)cc(c23)N[C@@H]1c1ccc(F)cc1 + Cc1[nH]c2ccc(F)cc2c1-c1nc2c3cccnc3c3ncccc3c2[nH]1"
  viability, T/C / %: 94.8
- compound: "CCc1c2c(nc3ccc(O)cc13)-c1cc3c(c(=O)n1C2)COC(=O)[C@]3(O)CC + Cc1[nH]c2ccc(F)cc2c1-c1nc2c3cccnc3c3ncccc3c2[nH]1"
  viability, T/C / %: 62.5
- compound: "CCc1c2c(nc3ccc(O)cc13)-c1cc3c(c(=O)n1C2)COC(=O)[C@]3(O)CC + Cc1cnc(CNC(=O)c2c(=O)c3ccc(N4CCCN(C)CC4)nc3n3c2sc2ccccc23)cn1"
  viability, T/C / %: 46.3
- compound: "Cn1ncnc1[C@H]1c2n[nH]c(=O)c3cc(F)cc(c23)N[C@@H]1c1ccc(F)cc1 + Cc1cnc(CNC(=O)c2c(=O)c3ccc(N4CCCN(C)CC4)nc3n3c2sc2ccccc23)cn1"
  viability, T/C / %: 108
- compound: "Cn1ncnc1[C@H]1c2n[nH]c(=O)c3cc(F)cc(c23)N[C@@H]1c1ccc(F)cc1 + CN(C)c1ccc(Nc2c3ccc(NC(=O)CCN4CCCC4)cc3nc3cc(NC(=O)CCN4CCCC4)ccc23)cc1"
  viability, T/C / %: 108

----------
Item-by-item account of viability, T/C
Tested on: 186277-243-T-J2-PDC complex spheroid viability
assay text: Anticancer human tumor 186277-243-T-J2-PDC cell line growth inhibition [GQUAD];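 also: spheroids exposed to drugs for 7 days; 100% = DMSO vehicle control viability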
test conditions: second compound 3.16 µM; first compound 0.316 µM; active compounds read low
quantity: viability, T/C

- molecule: "COc1cccc2c1C(=O)c1c(O)c3c(c(O)c1C2=O)CC(O)(C(=O)CO)CC3OC1CC(N)C(O)C(C)O1 (stereo unspecified) + CN(C)c1ccc(Nc2c3ccc(NC(=O)CCN4CCCC4)cc3nc3cc(NC(=O)CCN4CCCC4)ccc23)cc1"
  quantity: "viability, T/C"
  reported value: "56.4%"
- molecule: "COc1ccc([C@@H](O)c2cc(-c3ncnc4cc(N5CCOCC5)ccc34)c(F)cc2Cl)nn1 + Cc1cnc(CNC(=O)c2c(=O)c3ccc(N4CCCN(C)CC4)nc3n3c2sc2ccccc23)cn1"
  quantity: "viability, T/C"
  reported value: "45.6%"
- molecule: "Nc1ccn(C2OC(CO)C(O)C2(F)F)c(=O)n1 (stereo unspecified) + CN(C)c1ccc(Nc2c3ccc(NC(=O)CCN4CCCC4)cc3nc3cc(NC(=O)CCN4CCCC4)ccc23)cc1"
  quantity: "viability, T/C"
  reported value: "7.81%"
- molecule: "C=CCn1c(=O)c2cnc(Nc3ccc(N4CCN(C)CC4)cc3)nc2n1-c1cccc(C(C)(C)O)n1 + Cc1cnc(CNC(=O)c2c(=O)c3ccc(N4CCCN(C)CC4)nc3n3c2sc2ccccc23)cn1"
  quantity: "viability, T/C"
  reported value: "34.5%"
- molecule: "C=CCn1c(=O)c2cnc(Nc3ccc(N4CCN(C)CC4)cc3)nc2n1-c1cccc(C(C)(C)O)n1 + Cc1[nH]c2ccc(F)cc2c1-c1nc2c3cccnc3c3ncccc3c2[nH]1"
  quantity: "viability, T/C"
  reported value: "11.1%"
- molecule: "CC(=O)O[C@H]1C(=O)[C@@]2(C)[C@H]([C@H](OC(=O)c3ccccc3)[C@]3(O)C[C@H](OC(=O)[C@H](O)[C@@H](NC(=O)c4ccccc4)c4ccccc4)C(C)=C1C3(C)C)[C@]1(OC(C)=O)CO[C@@H]1C[C@@H]2O + Cc1cnc(CNC(=O)c2c(=O)c3ccc(N4CCCN(C)CC4)nc3n3c2sc2ccccc23)cn1"
  quantity: "viability, T/C"
  reported value: "24%"
- molecule: "Cc1[nH]c2ccccc2c1CCNCc1ccc(/C=C/C(=O)NO)cc1 + CN(C)c1ccc(Nc2c3ccc(NC(=O)CCN4CCCC4)cc3nc3cc(NC(=O)CCN4CCCC4)ccc23)cc1"
  quantity: "viability, T/C"
  reported value: "1.46%"
- molecule: "CC(C)(O)C1CCC(Nc2ccc3ncc(-c4cccc(C(F)(F)F)c4)n3n2)CC1 (stereo unspecified) + Cc1[nH]c2ccc(F)cc2c1-c1nc2c3cccnc3c3ncccc3c2[nH]1"
  quantity: "viability, T/C"
  reported value: "107%"
- molecule: "C#Cc1c(F)ccc2cc(O)cc(-c3ncc4c(N5CC6CCC(C5)N6)nc(OCC56CCCN5CC(F)C6)nc4c3F)c12 (stereo unspecified) + CN(C)c1ccc(Nc2c3ccc(NC(=O)CCN4CCCC4)cc3nc3cc(NC(=O)CCN4CCCC4)ccc23)cc1"
  quantity: "viability, T/C"
  reported value: "22.9%"
- molecule: "O=C(NO)c1cnc(N2CCN(S(=O)(=O)c3ccc4ccccc4c3)CC2)nc1 + Cc1[nH]c2ccc(F)cc2c1-c1nc2c3cccnc3c3ncccc3c2[nH]1"
  quantity: "viability, T/C"
  reported value: "19.7%"
- molecule: "CC1COCCN1c1cc(-c2ccnn2C)c2ccnc(-c3ccn[nH]3)c2n1 (stereo unspecified) + Cc1[nH]c2ccc(F)cc2c1-c1nc2c3cccnc3c3ncccc3c2[nH]1"
  quantity: "viability, T/C"
  reported value: "7.5%"
- molecule: "COc1ccc([C@@H](O)c2cc(-c3ncnc4cc(N5CCOCC5)ccc34)c(F)cc2Cl)nn1 + Cc1[nH]c2ccc(F)cc2c1-c1nc2c3cccnc3c3ncccc3c2[nH]1"
  quantity: "viability, T/C"
  reported value: "112%"
- molecule: "COc1ncnc(C2CC2)c1-c1ncc2cnn(Cc3ccc(-c4nc(C(F)(F)F)cn4C(C)C)cc3)c2n1 + CN(C)c1ccc(Nc2c3ccc(NC(=O)CCN4CCCC4)cc3nc3cc(NC(=O)CCN4CCCC4)ccc23)cc1"
  quantity: "viability, T/C"
  reported value: "113%"
- molecule: "O=c1[nH]cc(F)c(=O)[nH]1 + CN(C)c1ccc(Nc2c3ccc(NC(=O)CCN4CCCC4)cc3nc3cc(NC(=O)CCN4CCCC4)ccc23)cc1"
  quantity: "viability, T/C"
  reported value: "104%"
- molecule: "COc1cc(C2c3cc4c(cc3C(OC3OC5COC(C)OC5C(O)C3O)C3COC(=O)C23)OCO4)cc(OC)c1O (stereo unspecified) + Cc1cnc(CNC(=O)c2c(=O)c3ccc(N4CCCN(C)CC4)nc3n3c2sc2ccccc23)cn1"
  quantity: "viability, T/C"
  reported value: "51.4%"
- molecule: "Nc1ccn(C2OC(CO)C(O)C2(F)F)c(=O)n1 (stereo unspecified) + Cc1cnc(CNC(=O)c2c(=O)c3ccc(N4CCCN(C)CC4)nc3n3c2sc2ccccc23)cn1"
  quantity: "viability, T/C"
  reported value: "22.6%"
- molecule: "COc1cccc2c1C(=O)c1c(O)c3c(c(O)c1C2=O)CC(O)(C(=O)CO)CC3OC1CC(N)C(O)C(C)O1 (stereo unspecified) + Cc1cnc(CNC(=O)c2c(=O)c3ccc(N4CCCN(C)CC4)nc3n3c2sc2ccccc23)cn1"
  quantity: "viability, T/C"
  reported value: "31.4%"
- molecule: "COc1cc(C2c3cc4c(cc3C(OC3OC5COC(C)OC5C(O)C3O)C3COC(=O)C23)OCO4)cc(OC)c1O (stereo unspecified) + Cc1[nH]c2ccc(F)cc2c1-c1nc2c3cccnc3c3ncccc3c2[nH]1"
  quantity: "viability, T/C"
  reported value: "110%"
- molecule: "CC[C@@]1(O)C(=O)OCc2c1cc1n(c2=O)Cc2cc3c(CN(C)C)c(O)ccc3nc2-1 + CN(C)c1ccc(Nc2c3ccc(NC(=O)CCN4CCCC4)cc3nc3cc(NC(=O)CCN4CCCC4)ccc23)cc1"
  quantity: "viability, T/C"
  reported value: "42.5%"
- molecule: "CC1COCCN1c1cc(C2(O)CC3CCC(C2)O3)c2cnn(-c3ccn[nH]3)c2n1 (stereo unspecified) + CN(C)c1ccc(Nc2c3ccc(NC(=O)CCN4CCCC4)cc3nc3cc(NC(=O)CCN4CCCC4)ccc23)cc1"
  quantity: "viability, T/C"
  reported value: "5.73%"
- molecule: "CC1COCCN1c1cc(-c2ccnn2C)c2ccnc(-c3ccn[nH]3)c2n1 (stereo unspecified) + Cc1cnc(CNC(=O)c2c(=O)c3ccc(N4CCCN(C)CC4)nc3n3c2sc2ccccc23)cn1"
  quantity: "viability, T/C"
  reported value: "26.2%"
